Observed pKi, system human histamine H3 receptor (Homo sapiens).
pKi: −log10 of the molar value.
ENDPOINT LABEL: pKi

# lookup: pKi of `O=[N+]([O-])c1cc(CN2CCC(O)CC2)ccc1N1CCC(CN2CCCC2)CC1`
8.30

Lookup `CN1CCN(Cc2ccc(N3CCC(CN4CCCC4)CC3)cc2)CC1`
8.22

1. CN(C)CC1CCN(c2ccc(CN3CCCC3)cc2)CC1
2. CN1CCN(C2CCN(c3ccc(CN4CCOCC4)cc3)CC2)CC1
// pick larger pKi from pair: 1 vs 2 Mark your selection by writing its label.
1
